System: Candida albicans
Assay: Antifungal activity against Candida albicans at 20 ug/ml by paper disc method
Assay type: functional
Conditions: read-out: IZ
zone of inhibition at 20 µg/mL of 10 mm or higher: 1. Under 10 mm: -1.

input: Record COc1ccc(Cl)c(-c2nnc3n2NC(c2cccn2C)S3)c1 (stereo not drawn) ; criterion: zone of inhibition at 20 µg/mL no lower than 10 mm. Met?
output: -1

input: Record COc1ccc(Cl)c(-c2nnc3n2NC(c2ccc([N+](=O)[O-])o2)S3)c1 (stereo not drawn) ; criterion: zone of inhibition at 20 µg/mL no lower than 10 mm. Met?
output: 1

input: Record Cc1occc1-c1nnc2sc(-c3ccnc(F)c3)nn12 ; criterion: zone of inhibition at 20 µg/mL no lower than 10 mm. Met?
output: 1

input: Record COc1ccc(Cl)c(-c2nnc3sc(-c4cc(C)nc5ccccc45)nn23)c1 ; criterion: zone of inhibition at 20 µg/mL no lower than 10 mm. Met?
output: 1

input: Record COc1ccc(Cc2nnc3sc(-c4ccnc(F)c4)nn23)cc1OC ; criterion: zone of inhibition at 20 µg/mL no lower than 10 mm. Met?
output: 1

input: Record Cc1occc1-c1nnc2sc(-c3ccnc(Cl)c3)nn12 ; criterion: zone of inhibition at 20 µg/mL no lower than 10 mm. Met?
output: 1

input: Record COc1ccc2[nH]c(C)c(Cc3nn4c(Cc5ccc(OC)c(OC)c5)nnc4s3)c2c1 ; criterion: zone of inhibition at 20 µg/mL no lower than 10 mm. Met?
output: -1

input: Record Cc1occc1-c1nnc2n1NC(c1ccc([N+](=O)[O-])o1)S2 (stereo not drawn) ; criterion: zone of inhibition at 20 µg/mL no lower than 10 mm. Met?
output: 1

* * *

Tested on: Escherichia coli
Test: Antibacterial activity against Escherichia coli at 10 ug/ml by agar plate diffusion technique
Format: functional
Settings: read-out: IZ
zone of inhibition at 10 µg/mL of 5 mm or higher: condition met. Under 5 mm: condition not met.

input: Record Cc1occc1-c1nnc2sc(Cc3c[nH]c4ccccc34)nn12 ; criterion: zone of inhibition at 10 µg/mL no lower than 5 mm. Met?
output: condition met

input: Record COc1ccc(Cc2nnc3sc(-c4ccnc(Cl)c4)nn23)cc1OC ; criterion: zone of inhibition at 10 µg/mL no lower than 5 mm. Met?
output: condition met

input: Record COc1ccc(Cl)c(-c2nnc3sc(-c4ccnc(F)c4)nn23)c1 ; criterion: zone of inhibition at 10 µg/mL no lower than 5 mm. Met?
output: condition met

input: Record Cc1occc1-c1nnc2n1NC(c1ccco1)S2 (stereo not given) ; criterion: zone of inhibition at 10 µg/mL no lower than 5 mm. Met?
output: condition not met

input: Record COc1ccc(Cl)c(-c2nnc3n2NC(c2ccc([N+](=O)[O-])o2)S3)c1 (stereo not given) ; criterion: zone of inhibition at 10 µg/mL no lower than 5 mm. Met?
output: condition met

input: Record Cc1occc1-c1nnc2sc(-c3ccnc(F)c3)nn12 ; criterion: zone of inhibition at 10 µg/mL no lower than 5 mm. Met?
output: condition met

input: Record COc1ccc(Cc2nnc3sc(-c4ccnc5ccccc45)nn23)cc1OC ; criterion: zone of inhibition at 10 µg/mL no lower than 5 mm. Met?
output: condition met

input: Record COc1ccc(Cc2nnc3sc(-c4cc(C)nc5ccccc45)nn23)cc1OC ; criterion: zone of inhibition at 10 µg/mL no lower than 5 mm. Met?
output: condition met

input: Record COc1ccc2[nH]cc(Cc3nn4c(Cc5ccc(OC)c(OC)c5)nnc4s3)c2c1 ; criterion: zone of inhibition at 10 µg/mL no lower than 5 mm. Met?
output: condition not met

input: Record COc1ccc(Cl)c(-c2nnc3sc(-c4cc(-c5ccccc5)nc5ccccc45)nn23)c1 ; criterion: zone of inhibition at 10 µg/mL no lower than 5 mm. Met?
output: condition met

input: Record COc1ccc(Cl)c(-c2nnc3sc(-c4ccnc(Cl)c4)nn23)c1 ; criterion: zone of inhibition at 10 µg/mL no lower than 5 mm. Met?
output: condition met

input: Record Cc1occc1-c1nnc(S)n1N ; criterion: zone of inhibition at 10 µg/mL no lower than 5 mm. Met?
output: condition met

input: Record COc1ccc(Cl)c(-c2nnc3n2NC(c2ccc[nH]2)S3)c1 (stereo not given) ; criterion: zone of inhibition at 10 µg/mL no lower than 5 mm. Met?
output: condition not met

input: Record Cc1occc1-c1nnc2n1NC(c1cccn1C)S2 (stereo not given) ; criterion: zone of inhibition at 10 µg/mL no lower than 5 mm. Met?
output: condition not met

input: Record Cc1occc1-c1nnc2sc(-c3cc(-c4ccccc4)nc4ccccc34)nn12 ; criterion: zone of inhibition at 10 µg/mL no lower than 5 mm. Met?
output: condition met

input: Record COc1ccc(Cc2nnc3n2NC(c2cccn2C)S3)cc1OC (stereo not given) ; criterion: zone of inhibition at 10 µg/mL no lower than 5 mm. Met?
output: condition not met
